Where these numbers come from: ChEMBL document CHEMBL1926551

Assay: Therapeutic index, ratio of TC50 for human HeLa cells to IC50 for Human rhinovirus 14 infected in human HeLa cells
Assay type: cell-based
Settings: read-out: TI
Exercise: state measured selectivity ratio for each of the molecules provided.
Returns: the value as a bare number; no unit string appended.

The reported value for `O=C1/C(=C/C=C/c2ccc(Cl)cc2)COc2ccc(Cl)cc21` in terms of selectivity ratio is 17.6

// selectivity ratio value for `Clc1ccc(/C=C/C=C2\COc3ccc(Cl)cc3C2)cc1` : 3.02

Quick note, selectivity ratio for `Clc1ccc(C/C=C/C2=Cc3ccccc3OC2)cc1` landed at 2.22

The molecule listed as `Clc1ccc(/C=C/C=C2\COc3ccccc3C2)cc1` has a reported selectivity ratio of 8.31

----------
Test system: rhinovirus B14
Experiment: Antiviral activity against Human rhinovirus 14 infected in human HeLa cells assessed as inhibition of virus induced-plaque formation at 25 uM after 3 days by neutral red-based plaque reduction assay
Assay type: functional
Conditions: Rhinovirus B, 72 h
Field: inhibition at 25 µM. Provide a value for each of the molecules that follow.
Give the quantity in %, number only.

Record summary for `Clc1ccc2c(c1)C/C(=C/C=C/c1ccccc1)CO2` : reported inhibition at 25 µM = 30.3

According to the records, this molecule `O=C1/C(=C/C=C/c2ccccc2)COc2ccc(Cl)cc21` displays inhibition at 25 µM of 48.6

Lookup result for `Clc1ccc(C/C=C/C2=Cc3cc(Cl)ccc3OC2)cc1` ; measured inhibition at 25 µM: 27

The recorded inhibition at 25 µM for `O=C1/C(=C/C=C/c2ccc(Cl)cc2)COc2ccccc21` is 17.1

----------
Experiment: Therapeutic index, ratio of TC50 for human HeLa cells to IC50 for Human rhinovirus 1B infected in human HeLa cells
Type: cell-based
Conditions: read-out: TI
Rule: selectivity ratio of 7 or more gives Met; anything lower gives Not met.

Does the compound `Clc1ccc(/C=C/C=C2\COc3ccc(Cl)cc3C2)cc1` have recorded selectivity ratio that is 7 or more? Not met

Record `O=C1/C(=C/C=C/c2ccccc2)COc2ccc(F)cc21` ; criterion: selectivity ratio no lower than 7. Met? Met

Given `Fc1ccc2c(c1)C/C(=C/C=C/c1ccccc1)CO2` , state whether its selectivity ratio is at least 7. Met

Does the compound `C1=C(/C=C/Cc2ccccc2)COc2ccccc21` have recorded selectivity ratio that is 7 or more? Not met

Would you say `O=C1/C(=C/C#Cc2ccccc2)COc2ccc(Cl)cc21` shows selectivity ratio at minimum 7? Met

Item `O=C1/C(=C/C=C/c2ccc(Cl)cc2)COc2ccc(Cl)cc21` with selectivity ratio of 7 or above? Met

For this compound, is measured selectivity ratio 7 or higher? `Clc1ccc2c(c1)C/C(=C/C=C/c1ccccc1)CO2` Met

Can `O=C1/C(=C/C=C/c2ccccc2)COc2ccccc21` be said to have selectivity ratio at or above 7? Met

Reported selectivity ratio at or above 7? `Clc1ccc(C/C=C/C2=Cc3cc(Cl)ccc3OC2)cc1` Met

Kindly determine if selectivity ratio recorded for `C(/C=C/c1ccccc1)=C1/COc2ccccc2C1` is above or exactly 7. Met

Hi, just wondering whether `Clc1ccc2c(c1)C=C(/C=C/Cc1ccccc1)CO2` shows selectivity ratio of 7 or higher. Met

Threshold query (selectivity ratio >= 7) on `O=C1/C(=C/C#Cc2ccccc2)COc2ccccc21` Not met
